Assay: Study B: 17-AAG pharmacokinetics in subcutaneous interstitial fluid (tissue cages, HPLC)
Format: in vivo
Details: both sexes, dog, subcutaneous interstitial fluid, iv, 150 mg/m2, AUC 0–8 h, Study B, dogs, 1st administration of 150 mg/m^2 IV, mean ± SD
PARAMETER: AUC(0-t) (ng·h/mL)
# number only, unit ng·h/mL dropped from output

Ask | Suppose we examine the compound C=CCNC1=C2C[C@@H](C)C[C@H](OC)[C@H](O)[C@@H](C)/C=C(\C)[C@H](OC(N)=O)[C@@H](OC)/C=C\C=C(/C)C(=O)NC(=CC1=O)C2=O ; what AUC(0-t) value has been reported?
Reply | 2660

* * *

Assay: Study A dose-escalation protocol: 17-AAG pharmacokinetics in plasma (HPLC)
Assay type: in vivo
Conditions: female, dog, 200 mg/m2; Study A, dogs, plasma, single IV dose 200 mg/m^2, mean ± SD; read-out: Cmax
PARAMETER: Cmax (ng/mL)
The reply should be a number in ng/mL, with the unit left off.

Ask | Quick one: Cmax of C=CCNC1=C2C[C@@H](C)C[C@H](OC)[C@H](O)[C@@H](C)/C=C(\C)[C@H](OC(N)=O)[C@@H](OC)/C=C\C=C(/C)C(=O)NC(=CC1=O)C2=O ?
Reply | 9440

* * *

Experiment: Study B multiple administrations of 150 mg/m^2: 17-AAG pharmacokinetics in plasma (HPLC)
Assay type: in vivo, dogs
Conditions: both sexes, dog, plasma, iv, 150 mg/m2, Study B, dogs, plasma, 3rd of three IV administrations of 150 mg/m^2 at 48 h intervals, mean ± SD; read-out: t ½ (converted)
PARAMETER: half-life (min)
Write the answer as a number in min, unit excluded.

Ask | Need half-life, item C=CCNC1=C2C[C@@H](C)C[C@H](OC)[C@H](O)[C@@H](C)/C=C(\C)[C@H](OC(N)=O)[C@@H](OC)/C=C\C=C(/C)C(=O)NC(=CC1=O)C2=O
Reply | 48.6

* * *

Test: Study B multiple administrations of 150 mg/m^2: 17-AAG pharmacokinetics in plasma (HPLC)
Format: in vivo, dogs
Details: both sexes, dog, plasma, iv, 150 mg/m2, Study B, dogs, 1st of three IV administrations of 150 mg/m^2 at 48 h intervals, mean ± SD
PARAMETER: Cmax (ng/mL)
Unit ng/mL implied. Number only.

Ask | // query Cmax value for entry C=CCNC1=C2C[C@@H](C)C[C@H](OC)[C@H](O)[C@@H](C)/C=C(\C)[C@H](OC(N)=O)[C@@H](OC)/C=C\C=C(/C)C(=O)NC(=CC1=O)C2=O [17-AAG, 17-(allylamino)-17-demethoxygeldanamycin]
Reply | 6310

* * *

Assay: Study B: 17-AAG pharmacokinetics in subcutaneous interstitial fluid (tissue cages, HPLC)
Type: in vivo
Settings: both sexes, dog, subcutaneous interstitial fluid, iv, 150 mg/m2, Study B, dogs, subcutaneous interstitial fluid, 2nd administration of 150 mg/m^2 IV, mean ± SD; read-out: AUC 0–6 h
PARAMETER: AUC(0-t) (ng·h/mL)
Give just the numeric value; ng·h/mL need not be written.

Ask | Entry C=CCNC1=C2C[C@@H](C)C[C@H](OC)[C@H](O)[C@@H](C)/C=C(\C)[C@H](OC(N)=O)[C@@H](OC)/C=C\C=C(/C)C(=O)NC(=CC1=O)C2=O : reported AUC(0-t) = ?
Reply | 2550
